Task for the reader: assign each of the following compounds its reported Ki.
Study target: Serine protease 1 (Bos taurus, UniProt P00760)
Sequence (P00760 whole entry): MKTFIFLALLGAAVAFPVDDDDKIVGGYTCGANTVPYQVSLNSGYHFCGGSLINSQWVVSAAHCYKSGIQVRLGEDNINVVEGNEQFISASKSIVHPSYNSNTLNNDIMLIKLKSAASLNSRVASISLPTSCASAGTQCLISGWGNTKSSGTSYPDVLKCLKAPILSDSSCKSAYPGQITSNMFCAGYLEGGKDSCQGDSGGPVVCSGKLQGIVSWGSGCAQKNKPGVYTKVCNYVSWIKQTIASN
Assay notes: Binding affinity against bovine trypsin
Hi! Could you send only the number? It should be in nM, unit omitted.

The compound CN[C@H](Cc1ccccc1)C(=O)N1CCC[C@H]1C(=O)NC(CCCN=C(N)N)C(=O)c1nc2ccc(CO)cc2s1 (some centres undefined) showed Ki equal to 5.3

The compound CS(=O)(=O)CC[C@H](NS(=O)(=O)Cc1ccccc1)C(=O)N1CCC[C@H]1C(=O)N[C@@H](CCCNC(=N)N)C(=O)c1nc2ccccc2s1 showed Ki equal to 2.7

The compound N=C(N)NCCC[C@H](NC(=O)CN1CCCC[C@H](NS(=O)(=O)Cc2ccccc2)C1=O)C(=O)c1nc2ccccc2s1 showed Ki equal to 9.4

The compound CN[C@H](Cc1ccc(F)cc1)C(=O)N1CCC[C@H]1C(=O)NC(CCCN=C(N)N)C(=O)c1nc2ccccc2s1 (some centres undefined) showed Ki equal to 3

====

Study target: UniProt:P00734
Assay notes: Inhibitory concentration against human alpha thrombin
pIC50: −log10 of the molar value.
Task for the reader: assign each of the following molecules its reported pIC50.

The molecule CN[C@H](Cc1ccccc1)C(=O)N1CCC[C@H]1C(=O)N[C@@H](CC(=O)c1nc2ccccc2s1)[C@H]1CC[C@H](N)CC1 showed pIC50 equal to < 4.00

The molecule NC(N)=NCCCC(NC=O)C(=O)c1nc2ccccc2s1 (stereo not drawn) showed pIC50 equal to < 4.30

The molecule CN[C@H](Cc1ccccc1)C(=O)N1CCC[C@H]1C(=O)N[C@H](CC(=O)c1nc2ccccc2s1)[C@H]1CC[C@H](N)CC1 showed pIC50 equal to < 4.00

====

System: Cavia porcellus
Assay notes: Percent change in blood pressure in guinea pig at 10 mg/kg dose
Threshold rule: Delta BP greater than or equal to -50% is 1; below that, 0.

IN: Item CN[C@H](Cc1ccccc1)C(=O)N1CCC[C@H]1C(=O)NC(CCCN=C(N)N)C(=O)c1nc2c(s1)CCCC2 (some centres not stated) with Delta BP of -50% or above?
OUT: 0

IN: Item CN[C@H](Cc1ccccc1)C(=O)N1CCC[C@H]1C(=O)NC(CCCN=C(N)N)C(=O)c1nc2ccc(C(=O)O)cc2s1 (some centres not stated) with Delta BP of -50% or above?
OUT: 1

IN: Item N=C(N)NCCC[C@H](NC(=O)CN1CCCC[C@H](NS(=O)(=O)Cc2ccccc2)C1=O)C(=O)c1nc2ccccc2s1 with Delta BP of -50% or above?
OUT: 1

IN: Item N=C(N)NCCCC(NC(=O)[C@@H]1CCCN1C(=O)[C@@H](CC1CCCCC1)NCC(=O)O)C(=O)c1nc2ccccc2s1 (some centres not stated) with Delta BP of -50% or above?
OUT: 1

IN: Item CS(=O)(=O)CC[C@H](NS(=O)(=O)Cc1ccccc1)C(=O)N1CCC[C@H]1C(=O)N[C@@H](CCCNC(=N)N)C(=O)c1nc2ccccc2s1 with Delta BP of -50% or above?
OUT: 0

IN: Item CCS(=O)(=O)N[C@H](Cc1ccccc1)C(=O)N1CCC[C@H]1C(=O)NC(CCCN=C(N)N)C(=O)c1nc2ccccc2s1 (some centres not stated) with Delta BP of -50% or above?
OUT: 1

====

Study target: Prothrombin (Homo sapiens, UniProt P00734)
Assay notes: Binding affinity determined against human alpha thrombin
Task for the reader: assign each of the following compounds its reported Ki.
Write down the value, and be sure its unit follows.

The compound CN[C@H](Cc1ccccc1)C(=O)N[C@H](C(=O)NC(CCCN=C(N)N)C(=O)c1nc2ccccc2s1)C(C)C (stereo partly drawn) showed Ki equal to 21 nM

The compound CNCCCC[C@@H](NC(=O)[C@@H]1CCCN1C(=O)[C@@H](Cc1ccccc1)NC)C(=O)c1nc2ccccc2s1 showed Ki equal to 3500 nM

The compound CN[C@H](Cc1ccccc1)C(=O)N1CCCC[C@H]1C(=O)NC(CCCN=C(N)N)C(=O)c1nc2ccccc2s1 (stereo partly drawn) showed Ki equal to 0.34 nM

The compound N=C(N)NCCCC(NC(=O)[C@@H]1CCCN1C(=O)[C@@H](CC1CCCCC1)NCC(=O)O)C(=O)c1nc2ccccc2s1 (stereo partly drawn) showed Ki equal to 0.36 nM

The compound CN[C@H](Cc1ccccc1)C(=O)N1CCC[C@H]1C(=O)N[C@@H](Cc1cccc(C(=N)N)c1)C(=O)c1nc2ccccc2s1 showed Ki equal to 0.99 nM

The compound CN[C@H](Cc1ccccc1)C(=O)N1CCC[C@H]1C(=O)N[C@@H](CCCN=C(N)N)C(O)c1nc2ccccc2s1 (stereo in doubt; form 1) showed Ki equal to 5300 nM

The compound CN[C@H](Cc1ccccc1)C(=O)N1CCC[C@H]1C(=O)NC(CCCN=C(N)N)C(=O)c1cc2ccccc2s1 (stereo partly drawn) showed Ki equal to 2400 nM

The compound N=C(N)NCCCC(NC(=O)[C@@H]1CCCN1C(=O)C(O)C1c2ccccc2-c2ccccc21)C(=O)c1nc2ccccc2s1 (stereo partly drawn) showed Ki equal to 3.1 nM
